meta.source: paper PMC3577830

target: juvenile hormone-binding protein (JHBP) (Bombyx mori, UniProt Q9U556); construct: gene hJHBP; recombinant mature JHBP; assay: radioligand competition with 3H-JH III (dextran-coated charcoal)
parameter measured: IC50

q: Consider the compound COC(C)(C)CCC[C@H](C)C/C=C/C(C)=C/C(=O)OC(C)C (racemic) and give its measured IC50.
a: 35 µM

---

target: juvenile hormone-binding protein (JHBP) (Bombyx mori); construct: gene hJHBP; recombinant mature JHBP; assay: crystal structure ([…] Å); competition with 3H-JH III (charcoal assay)
parameter measured: IC50 (µM)
The answer is to be given in µM; state only the numeric part.

q: Consider the compound CC(O)CC(C)(C)O (racemic) [MPD, 2-methyl-2,4-pentanediol] and give its measured IC50.
a: 160
